Biological target: IκB kinase (IKK enzyme preparation) (Homo sapiens)
Sequence (O14920 whole entry): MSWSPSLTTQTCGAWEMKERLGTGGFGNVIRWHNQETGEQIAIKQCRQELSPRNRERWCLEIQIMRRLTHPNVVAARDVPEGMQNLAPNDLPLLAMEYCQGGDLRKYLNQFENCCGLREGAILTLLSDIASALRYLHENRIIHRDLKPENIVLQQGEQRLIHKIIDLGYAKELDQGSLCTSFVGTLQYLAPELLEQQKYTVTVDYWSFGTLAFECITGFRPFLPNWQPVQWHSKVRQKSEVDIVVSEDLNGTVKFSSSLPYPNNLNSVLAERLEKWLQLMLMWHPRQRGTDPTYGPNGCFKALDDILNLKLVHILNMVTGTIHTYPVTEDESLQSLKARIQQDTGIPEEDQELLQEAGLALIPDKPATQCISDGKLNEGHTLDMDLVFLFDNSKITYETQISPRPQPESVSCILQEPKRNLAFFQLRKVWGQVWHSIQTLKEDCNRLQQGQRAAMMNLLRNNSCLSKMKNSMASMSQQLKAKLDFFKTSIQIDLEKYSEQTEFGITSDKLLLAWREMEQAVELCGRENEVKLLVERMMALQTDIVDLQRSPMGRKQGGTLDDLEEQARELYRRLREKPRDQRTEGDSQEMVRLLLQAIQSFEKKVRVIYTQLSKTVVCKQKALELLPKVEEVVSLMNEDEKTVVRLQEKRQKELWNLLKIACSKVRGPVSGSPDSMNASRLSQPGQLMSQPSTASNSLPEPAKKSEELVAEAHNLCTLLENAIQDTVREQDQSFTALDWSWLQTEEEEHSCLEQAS
Assay: IKK-Enzyme ELISA
Assay type: biochemical
Settings: read-out: IC50 (nM) 50 μM ATP; 50 μM ATP
# IC50 values compiled below

{"item.smiles": "CNc1nccc(-c2cc3cc(C(=O)N[C@@H](CN(c4ccccc4)c4ccccn4)C(=O)O)ccc3[nH]2)n1", "IC50 / nM": 0.4}
{"item.smiles": "CNc1nccc(-c2cc3cc(C(=O)N[C@@H](CN(c4ccccc4)c4ccccn4)C(=O)OC)ccc3[nH]2)n1", "IC50 / nM": 16.8}
{"item.smiles": "CNc1nccc(-c2cc3cc(C(=O)N[C@@H](CN(c4ccccc4)c4ccccn4)C(=O)NOC)ccc3[nH]2)n1", "IC50 / nM": 0.8}
